quantity-kind: melting point

Examples with answers:
- molecule: "Cc1cc(C)c(C2C(=O)C(Cc3ccc(Cl)cc3)N(C)C2=O)c(C)c1 (stereo not given)"
  melting point: "> 230 °C"
- molecule: "Nc1cc2c(cc1C(=O)c1ccccc1)OCO2"
  melting point: "160 to 161 °C"
- molecule: "Cc1nnc2n1-c1ccc(C#CCOc3ccccc3)cc1C(c1ccccc1Cl)=NC2"
  melting point: "160 to 162 °C"
- molecule: "Nc1c(Cl)cc(C(O)CNCCC#CCOCCc2ccccc2)cc1Cl (stereo not given)"
  melting point: "62.5 to 63 °C"

Consider the additional molecule presented here.
Query :: I'd like to know its melting point. The molecule in question is "CCCCc1nc(Sc2ccc(OC)cc2)c(C(=O)OCC)[nH]1"
Result :: 96 °C

----------
Parameter melting point: see the listing below.

These solved cases illustrate the format of a correct answer.
- compound: "CC(C)N1CC(Oc2ccc(-c3cccc(N)n3)c3ccccc23)C1"
  quantity-kind: "melting point"
  reading: "120 to 135 °C"
- compound: "CCC(=O)Nc1ccc(Cl)c(COc2cccn3c(Br)c(C)nc23)c1Cl"
  quantity-kind: "melting point"
  reading: "205 to 207 °C"
- compound: "O=C1Nc2cccc(Br)c2C(=O)N2CCC[C@@H]12"
  quantity-kind: "melting point"
  reading: "221 to 224 °C"
- compound: "CCCCCCCc1cnc(-c2ccc(CCC(=O)OCC(F)(F)C(F)F)cc2)nc1"
  quantity-kind: "melting point"
  reading: "42 °C"
- compound: "CN1CC[C@@H]2CC(=O)c3cc(F)c(F)cc3[C@@H]2C1 (relative stereo)"
  quantity-kind: "melting point"
  reading: "> 250 °C"

Query :: Name the reported melting point value associated with the compound "O=C(O)c1ccc(C(=O)O)c(-c2nc3ccccc3s2)c1"
Result :: 287 to 288 °C

Query :: Which melting point is listed for CCCCN1C(N)=NS(=O)(=O)NC1Oc1cccc(C)c1 (stereo not given) ?
Result :: 217 to 219 °C

----------
quantity-kind: melting point

Consider the reported melting point for these compounds:
- compound: "CN1CC(C)(C)Oc2c(C(=O)NC3CN4CCC3CC4)cccc21 (stereo not given)"
  melting point: "114 to 116 °C"
- compound: "CC(=O)c1cccc(OCCCCCC(=O)O)c1"
  melting point: "70 to 72 °C"
- compound: "CN1CCN(Cc2nnc3n2-c2ccc(Cl)cc2C(c2ccccc2)=NC3)CC1"
  melting point: "203 to 206 °C"
- compound: "CC(=O)CCc1ccc(-c2ccccc2F)cc1"
  melting point: "30 °C"
- compound: "COC(=O)C1=C(C(=O)OC)c2c([nH]c3ccccc23)CC1"
  melting point: "249 °C"

Query :: What value of melting point has been reported for the following compound? "CN1C(C(=O)Nc2cccccc2=O)=C(O)c2ccccc2S1(=O)=O"
Result :: 259 to 261 °C

Query :: Look up melting point for this compound: "Cc1ccc(S(=O)(=O)Oc2cc(C=O)cc(OS(=O)(=O)c3ccc(C)cc3)c2OS(=O)(=O)c2ccc(C)cc2)cc1"
Result :: 159 °C

Query :: Record request: melting point value, item "COC(=O)c1cccc2c1Oc1ccccc1N2"
Result :: 113 to 114 °C

Query :: I'd like to know its melting point. The compound in question is "COc1ccc(-c2ccc(C#CC(=O)O)s2)cc1C(C)(C)C"
Result :: 124 to 126 °C

Query :: Reported melting point, compound "COC(C)(CC(=O)Nc1cccc(OC(=O)NC2CCCCC2)c1)OC" : ____
Result :: 163 °C

Query :: Would you mind telling me what melting point value was observed for "CN(C)CCn1c(=O)c2cccc(N)c2c2cnc3cc4c(cc3c21)OCO4" ?
Result :: 223 to 224 °C

Query :: Entry CCCCn1c(=O)n(CCCC2CO2)c(=O)c2c1ncn2C (stereo not given) has what melting point?
Result :: 76 to 78 °C

Query :: Entry "CSc1nn2c(O)cc(CCl)nc2c1S(=O)(=O)c1ccccc1" : reported melting point = ?
Result :: 215 to 217 °C

Query :: What does the record list as melting point for "O=C(NCCSCc1cccc(Cl)c1)c1c([N+](=O)[O-])cccc1[N+](=O)[O-]" ?
Result :: 139 to 140 °C

Query :: Can you look up the measured melting point of "CN(C)n1cnnc1NN=Cc1c(Cl)cccc1Cl" for me?
Result :: 189 °C

Query :: GET /values?readout=melting point&item= "Cc1ccc(-c2cn(C)cc(-c3ccccc3)c2=O)cc1"
Result :: 144 °C

Query :: Entry CNc1cc(SCC(C)O)c(N)cc1[N+](=O)[O-] (stereo not given) has what melting point?
Result :: 152 °C

----------
The following compounds are listed with their measured melting point values.

Look over these answered cases.
- structure-smiles-string: "Nc1ccc2sc3ccc(F)cc3c2c1"
  melting point: "131 to 132 °C"
- structure-smiles-string: "BrCc1ccc(CBr)c(Br)c1"
  melting point: "90 to 91 °C"
- structure-smiles-string: "Cc1ccc(S(=O)(=O)N=CN(C)C)cc1Br"
  melting point: "162 °C"
- structure-smiles-string: "Nc1ccc(S(=O)(=O)c2cc(Cl)nc(Cl)c2)cc1"
  melting point: "190 to 192 °C"
- structure-smiles-string: "Cc1cc(C)n2nc(Sc3ccccc3Cl)nc2n1"
  melting point: "143 °C"

Query :: Endpoint output: melting point of "O=c1oc2ncccc2n1CCBr" . Value?
Result :: 109 to 110 °C

----------
Readings of melting point for the listed compounds

Recorded melting point, per entry:
- compound: "Cc1ccc(-c2ccc(S(=O)(=O)N3CCN(C(=O)C4CCN(c5ccncc5)CC4)CC3)cc2)cc1"
  melting point: "213 to 217 °C"
- compound: "ClCCCn1c2ccccc2c2cc(-c3nc(-c4ccccc4)no3)ncc21"
  melting point: "192 to 195 °C"
- compound: "COC(=O)c1ccc2occ(-c3cc(F)ccc3F)c2c1"
  melting point: "161 to 162 °C"

Query :: Endpoint output: melting point of OCC1OC(n2c(Br)nc3cc(Cl)c(Cl)cc32)CC1O (centres undefined) . Value?
Result :: 187 to 188 °C

Query :: Fill blank: measured melting point of the compound O=C(Nc1nc2ccc(Sc3nnc4ccc(-c5cnn(CCOC6CCCCO6)c5)cn34)cc2s1)C1CC1 (centres undefined) is ____.
Result :: 110 °C

Query :: Which melting point value belongs to CC(C)CC1Cc2cc(OCC(=O)O)c(Cl)c(Cl)c2C1=O (centres undefined) ?
Result :: 192 °C

Query :: If you can, please state the reported melting point value of "COc1cc2c(Nc3ccc(Sc4nccn4C)c(Cl)c3)c(C#N)cnc2cc1N1CCC(N2CCOCC2)CC1" .
Result :: 219 to 221 °C

Query :: Given the compound "COc1ccc(C#N)c(C(=O)Cl)c1" , what is its reported melting point?
Result :: 192 to 194 °C

Query :: Quick check: melting point of Cc1cc2c(c(C(O)c3cn(C(c4ccccc4)(c4ccccc4)c4ccccc4)cn3)c1)OC(C)(C)OC2 (centres undefined) ?
Result :: 205 to 215 °C

----------
Entries and their melting point values follow.

Query :: Could you share which melting point value was measured for "Cc1coc(-c2ccc(-c3ccccc3S(=O)(=O)Nc3onc(C)c3C)cc2)n1" ?
Result :: 85 to 95 °C

Query :: Need melting point, item "CCN1CCN(c2ccc(Br)cc2)CC1"
Result :: 112 °C

Query :: Dear colleague, I am looking for the recorded melting point of the following compound: "CCCCN(C1=C(O)C[C@@](CCc2cccc(O)c2)(C2CCCC2)OC1=O)c1ccccc1"
Result :: 64 to 66 °C

Query :: # get_value(readout='melting point', item= "CN(C)c1nc(NCc2ccc(NC(=O)c3ccc(F)cc3)cc2)c2ccc(CO)cc2n1" )
Result :: 158 °C

Query :: Dear colleague, I am looking for the recorded melting point of the following compound: "CC1(C)OC[C@@H](CNc2c([N+](=O)[O-])cnc3cc(Br)ccc23)O1"
Result :: 136 to 137 °C

Query :: If you can, please state the reported melting point value of "C[C@@H]1CC=C(S(=O)(=O)c2ccccc2)[C@H](O)C1" .
Result :: 79 to 81 °C

Query :: Requested field: melting point. Item: "Cc1c(-c2ccc(Cl)cc2)nn(C)c1C(F)(F)F"
Result :: 87 to 88.5 °C

Query :: GET /values?readout=melting point&item= "O=C(c1cccs1)N(CCCCn1ccnc1)C1=Nc2cccc3cccc1c23"
Result :: 76 to 80 °C

Query :: Item "COc1ccc(C(C)(C)C)cc1NC(=S)Nc1cccc2ccccc12" has what recorded melting point?
Result :: 158 to 160 °C

Query :: Tell me the measured melting point of "OCc1cnoc1-c1ccc(F)cc1" , please.
Result :: 41 to 42 °C

Query :: Which melting point is listed for CCOC(=O)OC1=C(c2cc(C)ccc2C)C(=O)NC1CC1CCS(=O)CC1 (stereo not given) ?
Result :: 103 to 106 °C

Query :: Name the reported melting point value associated with the compound "CCCCCCC(=N)NC(=S)Nc1ccc(Br)cc1"
Result :: 112 to 113 °C

Query :: Would you kindly share the measured melting point for "CCCCS(=O)(=O)Nc1ccc(Oc2cccc3c(C)ccnc23)cc1" ?
Result :: 208 to 209 °C

Query :: Reported melting point for "Cc1cc(N)nc(CCCCNC(=O)c2c(O)cccc2O)c1" : what is it?
Result :: 158 to 159 °C

Query :: I would be grateful if you could share the reported melting point for "COC(=O)c1ccc(Cn2cc(/C=C/C(=O)N3CCCC3)c3ccc(/C=C/C(=O)N4CCCC4)cc32)c(OC)c1" .
Result :: 226 to 228 °C

Query :: GET /values?readout=melting point&item= "CC1(C)CCC(C)(C)c2cc(OCc3ccc(C(=O)O)cc3)ccc21"
Result :: > 330 °C

// data source = a melting point compilation (Tetko et al.; mined from patent text by program, amines drawn as free bases though some values may be those of a salt)
